Reference source: patent US7074789B2

Molecular target: Flt-1 (Homo sapiens, UniProt P17948)
Sequence (P17948 27-1338, species assumed): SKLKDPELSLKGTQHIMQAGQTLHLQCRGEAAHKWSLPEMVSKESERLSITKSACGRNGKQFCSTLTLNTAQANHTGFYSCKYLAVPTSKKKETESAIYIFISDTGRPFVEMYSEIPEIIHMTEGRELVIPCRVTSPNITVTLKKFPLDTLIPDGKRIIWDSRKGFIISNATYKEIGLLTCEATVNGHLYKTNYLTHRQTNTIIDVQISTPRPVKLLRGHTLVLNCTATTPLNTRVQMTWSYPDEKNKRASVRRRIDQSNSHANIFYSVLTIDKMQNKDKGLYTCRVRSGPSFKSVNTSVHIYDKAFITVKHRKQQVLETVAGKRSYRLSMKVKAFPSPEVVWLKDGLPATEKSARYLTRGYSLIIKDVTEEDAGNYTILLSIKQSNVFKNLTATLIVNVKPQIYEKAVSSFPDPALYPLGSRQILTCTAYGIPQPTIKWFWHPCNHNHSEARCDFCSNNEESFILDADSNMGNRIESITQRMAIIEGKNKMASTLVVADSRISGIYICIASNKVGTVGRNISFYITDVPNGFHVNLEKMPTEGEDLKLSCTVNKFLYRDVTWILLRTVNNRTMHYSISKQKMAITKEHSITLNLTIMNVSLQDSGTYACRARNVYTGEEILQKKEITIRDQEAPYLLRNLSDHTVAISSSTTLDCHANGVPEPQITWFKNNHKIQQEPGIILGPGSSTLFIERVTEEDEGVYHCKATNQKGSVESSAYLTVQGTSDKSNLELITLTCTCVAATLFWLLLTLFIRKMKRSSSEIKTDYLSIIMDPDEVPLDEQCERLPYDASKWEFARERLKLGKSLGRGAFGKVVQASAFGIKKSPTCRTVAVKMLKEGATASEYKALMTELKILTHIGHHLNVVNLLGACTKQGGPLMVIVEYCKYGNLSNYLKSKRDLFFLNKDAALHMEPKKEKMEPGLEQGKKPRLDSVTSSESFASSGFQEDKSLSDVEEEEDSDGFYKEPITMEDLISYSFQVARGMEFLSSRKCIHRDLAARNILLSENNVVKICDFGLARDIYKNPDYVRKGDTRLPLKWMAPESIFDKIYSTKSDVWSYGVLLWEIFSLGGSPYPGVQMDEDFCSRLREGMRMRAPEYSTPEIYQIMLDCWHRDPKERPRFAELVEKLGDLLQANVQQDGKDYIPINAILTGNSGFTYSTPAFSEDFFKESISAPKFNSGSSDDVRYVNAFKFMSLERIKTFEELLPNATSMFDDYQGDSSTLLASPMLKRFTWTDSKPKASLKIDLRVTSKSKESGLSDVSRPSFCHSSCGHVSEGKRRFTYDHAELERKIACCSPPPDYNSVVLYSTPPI
pIC50: −log10 of the molar value.
pIC50 values, listed per item

[Q] API: value(readout=pIC50, system=Flt-1 (Homo sapiens, UniProt P17948)) for record CCOc1ccc(Nc2ncnc(Nc3ccc(C)c(O)c3)n2)cc1OCC
[A] > 5.98

[Q] Return pIC50 measured with Flt-1 (Homo sapiens, UniProt P17948) given this molecule: COc1ccc2c(ccn2-c2ncnc(Nc3cc(OC)c(OC)c(OC)c3)n2)c1
[A] 5.23 to 6.01

[Q] Give pIC50 (Flt-1 (Homo sapiens, UniProt P17948)) of the following molecule: COc1cc(Nc2ncnc(-n3c(Cl)nc4ccccc43)n2)cc(OC)c1OC
[A] 5.24 to 6.01

[Q] Look up pIC50 with Flt-1 (Homo sapiens, UniProt P17948) for this molecule: COc1ccc(Nc2ncnc(Nc3cc(-c4ccco4)n[nH]3)n2)cc1OC
[A] > 5.98

[Q] Give Flt-1 (Homo sapiens, UniProt P17948) pIC50 for COc1cc(Nc2ncnc(-n3c(Nc4ccc5cn[nH]c5c4)nc4ccccc43)n2)cc(OC)c1OC
[A] 5.16 to 5.33

[Q] Can you look up pIC50 on Flt-1 (Homo sapiens, UniProt P17948) for COc1cc(Nc2ncnc(-n3c(NCc4cccc(C)c4)nc4ccccc43)n2)cc(OC)c1OC ?
[A] 5.32 to 6.09

[Q] // fetch Flt-1 (Homo sapiens, UniProt P17948) pIC50 for COc1cc(Nc2ncnc(-n3c(NCc4cccc(F)c4)nc4ccccc43)n2)cc(OC)c1OC
[A] > 6.10

----------
Molecular target: AKT (Homo sapiens)
Construct: Kinases are expressed as either kinase domains or full length constructs; made in house
Sequence (Q9Y243 whole entry, the tested form may be a part): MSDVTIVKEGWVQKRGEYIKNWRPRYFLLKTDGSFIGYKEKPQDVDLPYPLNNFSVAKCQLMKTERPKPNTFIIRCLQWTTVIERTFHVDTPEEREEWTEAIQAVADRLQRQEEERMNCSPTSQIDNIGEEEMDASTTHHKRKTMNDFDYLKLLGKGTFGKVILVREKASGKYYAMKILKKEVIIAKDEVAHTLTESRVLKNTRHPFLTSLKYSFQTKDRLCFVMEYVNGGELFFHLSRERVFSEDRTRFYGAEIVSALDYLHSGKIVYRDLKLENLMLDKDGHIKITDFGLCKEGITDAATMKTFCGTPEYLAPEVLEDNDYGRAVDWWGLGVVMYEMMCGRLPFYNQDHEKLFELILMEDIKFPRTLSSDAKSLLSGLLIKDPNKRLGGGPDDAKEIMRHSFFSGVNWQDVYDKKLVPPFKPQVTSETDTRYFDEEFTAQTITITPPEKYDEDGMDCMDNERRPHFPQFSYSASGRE
Test: Kinase inhibition assay (33P transfer), AKT
Format: biochemical
Conditions: Table 2, kinase inhibition class; read-out: AKT3-1
Let's look at some compounds and their measured IC50.

The examples below pair each entry with its known result.
{"columns": ["Compound", "IC50"],
 "data": [
  ["COc1ccc(Nc2ncnc(NCCCN3CCCCC3C)n2)cc1OC (stereo not shown) [Compound 782]", "> 11.6 µM"],
  ["COc1cc(Nc2ncnc(-n3c(=O)oc4ccccc43)n2)cc(OC)c1OC [Compound 423]", "6.07 to 8.85 µM"]
]}

[Q] # lookup: IC50 of COc1cc(CNc2ncnc(N(C)c3cccc(Cl)c3)n2)cc(OC)c1OC [Compound 747]
[A] > 10.8 µM

[Q] What does the record list as IC50 for COc1ccc(Nc2ncnc(Nc3ccc(Oc4ccccc4)cc3)n2)cc1OC [Compound 929] ?
[A] > 10.8 µM

----------
Biological target: AKT (Homo sapiens)
Construct: Kinases are expressed as either kinase domains or full length constructs; made in house
Assay: Kinase inhibition assay (33P transfer), AKT
Format: biochemical
Conditions: Table 2, kinase inhibition class; read-out: AKT3-1
pIC50: −log10 of the molar value.
Quick list: pIC50 per entry.

Worked cases, pIC50 given:
{"columns": ["Compound", "pIC50"],
 "data": [
  ["COc1cc(Nc2ncnc(-n3c(Nc4cccc5cccnc45)nc4ccccc43)n2)cc(OC)c1OC [Compound 588]", "< 5.06"],
  ["COc1cc(Nc2ncnc(-n3c(Nc4ccc(C)cc4)nc4ccccc43)n2)cc(OC)c1OC [Compound 385]", "< 5.03"],
  ["O=C(Nc1cccc(Nc2ncnc(-n3c(=O)[nH]c4ccccc43)n2)c1)O[C@@H]1CCOC1 [Compound 455]", "< 4.98"],
  ["O=c1[nH]c2ccccc2n1-c1ncnc(Nc2ccc(C(F)(F)F)cc2)n1 [Compound 505]", "< 4.92"],
  ["COc1cc(Nc2ncnc(-n3c(NCCc4ccncc4)nc4ccccc43)n2)cc(OC)c1OC [Compound 948]", "< 5.04"],
  ["COc1cc(Nc2ncnc(-n3ccc4ccc(Cl)cc43)n2)cc(OC)c1OC [Compound 237]", "< 4.96"]
]}

# context switch: different compound, same pIC50
[Q] Look up pIC50: COc1cc(Nc2ncnc(Nc3nccs3)n2)cc(OC)c1OC [Compound 442]
[A] < 4.90
